Target: RORγ (UniProt P51449)
Construct: hRORg-LBD|aa259-518|NP_005051.2; hRORgt|aa1-497|NP_001001523 (RORg, t isoform, 497aa); mRORg-LBD|aa264-516|NP_035411
Type: cell-based
Details: renilla normalised (RENnorm) luciferase, 293T cells, 16 h
measured attribute: pIC50 (REN)

- structure string: "CC(C)(C)c1cc(-n2nc(C(=O)NCc3ccno3)c(Cl)c2CC2CCCCC2)cc(C(C)(C)C)c1"
  measured attribute: "pIC50 (REN)"
  result value: 6.2
- structure string: "CC(C)(C)c1cc(-n2nc(C(=O)NCc3cnco3)c(Cl)c2CC2CCCCC2)cc(C(C)(C)C)c1"
  measured attribute: "pIC50 (REN)"
  result value: 6.3
- structure string: "Cn1c(C(=O)N2CCC(C)(C(=O)O)CC2)cc(-c2cc(C(C)(C)C)cc(C3(C)CC3)c2)c1CC1CCCCC1"
  measured attribute: "pIC50 (REN)"
  result value: 7.6
- structure string: "CC(C)(C)c1cc(-c2cc(C(=O)N[C@H]3C[C@H](C(=O)O)C3)[nH]c2CC2CCCCC2)cc(C2(C)CC2)c1"
  measured attribute: "pIC50 (REN)"
  result value: 7.1
- structure string: "Cc1cc(-c2nc(C(N)=O)nn2CC2CCCCC2)cc(C(C)(C)C)c1O"
  measured attribute: "pIC50 (REN)"
  result value: 5.9

* * *

# key: entry, value: pIC50
Target: RORγ ligand binding domain (LBD) (Homo sapiens)
Sequence (P51449 269-508 limits assumed): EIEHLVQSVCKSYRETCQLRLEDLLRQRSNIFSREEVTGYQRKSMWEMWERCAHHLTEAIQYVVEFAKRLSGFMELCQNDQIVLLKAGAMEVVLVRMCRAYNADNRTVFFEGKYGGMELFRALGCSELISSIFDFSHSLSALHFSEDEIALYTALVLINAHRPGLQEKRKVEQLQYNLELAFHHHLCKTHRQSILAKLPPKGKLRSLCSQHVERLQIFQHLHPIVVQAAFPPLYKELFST
Experiment: TR-FRET Activity Assay (ligand sensing assay, RORγ-LBD / coactivator peptide interaction)
pIC50: −log10 of the molar value.

- molecule: "Cc1c(C(=O)NCC(C)(C)O)cn(-c2cc(C(C)(C)C)cc(C3(C)CC3)c2)c1CC1CCCCC1 [Example 1/1]"
  pIC50: 6.70
- molecule: "COC(C)(C)c1cc(-n2nc(C(=O)NC3COC3)c(Cl)c2CC2CCCCC2)cc(C(C)(C)C)c1 [104/4]"
  pIC50: 6.20
- molecule: "CC(C)(C)c1cc(-n2nc(C(N)=O)cc2CC2CCCCC2)cc(C(C)(C)C)c1 [Example 312]"
  pIC50: 6.60
- molecule: "Cn1c(C(=O)NC2CCOCC2)cc(-c2cc(C(C)(C)C)cc(C3(C)CC3)c2)c1CC1CCCCC1 [8/3]"
  pIC50: 6.30
- molecule: "CC(C)(C)c1cc(-c2cc(C(=O)N[C@H]3C[C@H](C(=O)O)C3)nn2CC2CCCCC2)cc(C2(C)CC2)c1 [Example 100]"
  pIC50: 6.30
- molecule: "Cc1c(C(=O)NC2CCOCC2)cn(-c2cc(Br)cc(C(C)(C)C)c2)c1C=C1CCCCC1 [Example 2]"
  pIC50: 5.90
- molecule: "Cn1c(C(=O)NC23CCC(C(=O)O)(CC2)C3)cc(-c2cc(C(C)(C)C)cc(C3(C)CC3)c2)c1CC1CCCCC1 [8/12]"
  pIC50: 6.00
- molecule: "Cc1c(C(=O)NC2CCOCC2)cn(-c2cc(C(C)(C)C)cc(C3(C)CC3)c2)c1C(O)C1CCCCC1 (stereo not shown) [Example 15]"
  pIC50: 6.20
- molecule: "Cc1c(C(=O)NCCC(C)(C)C(=O)O)cn(-c2cc(C(C)(C)C)cc(C3(C)CC3)c2)c1CC1CCCCC1 [1/4]"
  pIC50: 6.40
- molecule: "Cc1c(C(=O)NC2CCOCC2)cc(-c2ccc(S(=O)(=O)NC(C)(C)C)c(C(F)(F)F)c2)n1CC(C(F)(F)F)C(F)(F)F [Example 319]"
  pIC50: 5.30
- molecule: "CC(C)(C)c1cc(-c2nc(C(=O)NC3CCOCC3)nn2CC2CCCCC2)cc(C(C)(C)C)c1O [308/4]"
  pIC50: 6.00
- molecule: "CC(=O)c1cc(-c2cc(C(C)(C)C)cc(C(C)(C)C)c2)n(CC2CCCCC2)c1C [Example 321]"
  pIC50: 6.10
- molecule: "Cc1cc(-n2nc(C(=O)NC3CC3)cc2CC2CCCCC2)cc(C(C)(C)C)c1 [102/3]"
  pIC50: 5.50
